The reported numbers originate from ChEMBL document CHEMBL1287753.

Measured IC50 accompanies every entry in the list below.
Assay: Inhibition of beta-mannosidase

[
  {
    "molecule": "C[C@@H]1N[C@@H](CCO)[C@H](O)[C@@H]1O",
    "IC50": "> 1000 µM"
  }
]

Lab note: measured IC50 of C[C@H]1N[C@@H](CO)[C@@H](O)[C@H]1O (racemic) was > 1000 µM

###

Experiment: Inhibition of beta-glucosidase
pIC50: −log10 of the molar value.
assay endpoint: pIC50

A. OC[C@H]1NC[C@@H](O)[C@H]1O
B. C[C@H]1N[C@H](CO)[C@H](O)[C@@H]1O
C. C[C@H]1N[C@H](CO)[C@@H](O)[C@H]1O
Q) Put the entries in order of pIC50, starting with the largest number. Labels, requested order.
A) C, A, B

###

Test: Inhibition of alpha-glucosidase
pIC50: −log10 of the molar value.
assay endpoint: pIC50

[
  {
    "molecule": "C[C@@H]1N[C@@H](CCO)[C@H](O)[C@@H]1O",
    "experimental value": "< 4.00"
  }
]

Please turn your attention to the following entry.
Please fill in: pIC50 reported for C[C@H]1N[C@@H](CO)[C@@H](O)[C@H]1O (racemic) = < 4.00

###

Assay: Inhibition of alpha-fucosidase
Conditions: read-out: Ki
pKi: −log10 of the molar value.
assay endpoint: pKi

P. C[C@H]1N[C@H](CO)[C@H](O)[C@@H]1O
Q. C[C@@H]1NC[C@H](O)[C@@H]1O
Q) # returns the entry with the larger pKi; inputs P and Q Pick one; state its label.
A) Q

P. C[C@@H]1N[C@H](CO)[C@H](O)[C@@H]1O
Q. C[C@H]1N[C@H](CO)[C@@H](O)[C@H]1O
R. C[C@H]1N[C@@H](CO)[C@@H](O)[C@H]1O (racemic)
S. C[C@@H]1N[C@@H](CO)[C@H](O)[C@@H]1O
Q) Put the items in sequence by pKi, from largest down. Please, when replying, give the labels in the order that was requested.
A) P, R, S, Q
(P: 8.31, R: 7.82, S: 7.10, Q: 3.00)

###

Test: Inhibition of beta-galactosidase
assay endpoint: Ki (µM)
Value expressed in µM; do not type the unit.

The compound identified as C[C@H]1N[C@@H](CO)[C@@H](O)[C@H]1O (racemic) registered its Ki at 53

###

Test: Inhibition of beta-galactosidase
assay endpoint: pIC50
Keep it numeric: pIC50 is minus log10 of the concentration in mol/L.

The recorded pIC50 for OC[C@H]1NC[C@@H](O)[C@H]1O is 3.85

###

Assay: Inhibition of alpha-galactosidase
assay endpoint: Ki (µM)

P. C[C@H]1N[C@@H](CO)[C@@H](O)[C@H]1O (racemic)
Q. C[C@H]1N[C@H](CO)[C@H](O)[C@@H]1O
Q) Hi, I'm comparing P with Q and wondering which one has the bigger number for Ki. Any idea? Identify your selection by its label.
A) Q
(Q: 5 µM, P: 3 µM)

###

Test: Inhibition of alpha-mannosidase
pIC50: −log10 of the molar value.
assay endpoint: pIC50

Just so you know, measured pIC50 for OC[C@H]1NC[C@@H](O)[C@H]1O came out at 4.85

Measured pIC50, C[C@H]1N[C@@H](CO)[C@@H](O)[C@H]1O (racemic) : < 3.00

C[C@@H]1N[C@@H](CCO)[C@H](O)[C@@H]1O has a reported pIC50 of < 3.00

###

Assay: Inhibition of alpha-mannosidase
Settings: read-out: Ki
assay endpoint: Ki (µM)
# output: bare number, implied unit µM

Ki measured on C[C@H]1N[C@H](CO)[C@H](O)[C@@H]1O = 53
